Target: B-Raf kinase (Homo sapiens, UniProt P15056)
Construct: GST (N); purchased Sigma
Sequence (P15056 416-766): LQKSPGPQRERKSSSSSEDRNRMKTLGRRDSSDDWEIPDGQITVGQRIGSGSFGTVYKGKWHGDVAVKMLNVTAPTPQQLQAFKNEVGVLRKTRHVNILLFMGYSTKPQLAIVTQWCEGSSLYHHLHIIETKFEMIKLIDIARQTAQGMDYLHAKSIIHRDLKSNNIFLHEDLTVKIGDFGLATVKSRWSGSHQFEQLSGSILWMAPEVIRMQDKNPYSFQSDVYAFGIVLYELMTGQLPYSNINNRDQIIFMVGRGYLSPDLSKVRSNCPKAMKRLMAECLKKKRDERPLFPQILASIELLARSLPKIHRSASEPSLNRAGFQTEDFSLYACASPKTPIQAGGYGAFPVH
Experiment: Biochemical assay for B-Raf.1 (coupled pyruvate kinase/lactate dehydrogenase)
Conditions: read-out: BRAF.1 IC50
pIC50: −log10 of the molar value.
measured attribute: pIC50

**Q:** Fill blank: measured pIC50 of the molecule COC(C)(C)CCNC(=O)Nc1cc(-c2nccc(-c3ccnc(NC(=O)C4CC4)c3)n2)c(C)cc1F [Example 83] is ____.
**A:** ≥ 7.00

**Q:** Name the reported pIC50 value associated with the molecule Cc1cc(F)c(NC(=O)NCCC(C)(C)F)cc1-c1cc(OCCO)nc(-c2ccnc3[nH]ncc23)c1 [Example 94]
**A:** ≥ 7.00

**Q:** What pIC50 value was documented for this molecule, Cc1ccc(NC(=O)N[C@H]2CCc3ccccc32)cc1-c1cc(OCCO)nc(N2CCOCC2)c1 [Example 20] ?
**A:** 6.00 to 6.30

**Q:** // pIC50 lookup, key: CNc1cc(-c2cc(-c3cc(NC(=O)NCCC4(C(F)(F)F)CC4)c(F)cc3C)cc(OCCO)n2)ccn1 [Example 28]
**A:** 6.30 to 7.00

**Q:** Look at this molecule and give its reported pIC50. COC(C)(C)CCNC(=O)Nc1cc(-c2cc(OCCO)nc(-c3ccnc4[nH]ncc34)c2)c(C)cc1F [Example 91]
**A:** ≥ 7.00

**Q:** Give its pIC50 value. Item: Cc1ccc(NC(=O)Nc2ccnc(C(C)(C)C#N)c2)cc1-c1ccnc(-c2ccnc(C(=O)NC3CC3)c2)c1 [Example 68]
**A:** ≥ 7.00

**Q:** I have this molecule here, COC(C)(C)CCNC(=O)Nc1cnc(C)c(-c2cc(-c3ccnc(NC(=O)C4CC4)c3)cnn2)c1 [Example 121] , and I need its recorded pIC50.
**A:** 6.30 to 7.00

###

Target: B-Raf (V600E) kinase (Homo sapiens, UniProt P15056, V600E)
Construct: B-Raf (V600E) residues 416-766 with a; GST (N); purchased SignalChem
Sequence (P15056 416-766 V600E): as the sequence (P15056 416-766) above, with V185E counted along it
Assay: Biochemical assay for B-Raf (V600E).1 (coupled pyruvate kinase/lactate dehydrogenase)
Conditions: read-out: BRAF V600E.1 IC50
Experimental: Biochemical Assay for B-Raf (V600E).1 Activity of B-Raf (V600E) (SEQ. ID NO: 4) kinase was determined spectroscopically using a coupled pyruvate kinase/lactate dehydrogenase assay that continuously monitors the ATP hydrolysis-dependent oxidation of NADH (e.g., Schindler et al., Science, 2000, 289, 1938-1942). […] Inhibition of B-Raf (V600E) was measured by adding serial diluted test compound (final assay concentration of 1% DMSO). […] The reaction rate was calculated using the 3 to 4 h time frame. […]
For each record, write down the corresponding IC50.

**Q:** Item `Cc1cc(F)c(NC(=O)N[C@H]2C[C@H](N(C)C)C2)cc1-c1cc(OCCO)nc(-c2ccnc3[nH]ncc23)c1` with B-Raf (V600E) kinase (Homo sapiens, UniProt P15056, V600E) - IC50?
**A:** 100 to 500 nM

**Q:** Tell me reported IC50 for COC(=O)Nc1cc(-c2nccc(-c3cc(NC(=O)N4CCC(C(F)(F)F)C4)ccc3C)n2)ccn1 (stereo not shown) , tested with B-Raf (V600E) kinase (Homo sapiens, UniProt P15056, V600E).
**A:** 100 to 500 nM

**Q:** Lab note: need IC50 for `COC1(CCNC(=O)Nc2cnc(C)c(-c3ccnc(-c4ccnc(NC(=O)C5CC5)c4)n3)c2)CC1` on B-Raf (V600E) kinase (Homo sapiens, UniProt P15056, V600E), anyone have it?
**A:** ≤ 100 nM

**Q:** # query: IC50 | item `COC(C)(C)CCNC(=O)Nc1cc(-c2cccc(-c3ccnc(NC(C)=O)c3)c2)c(C)cc1F` | system: B-Raf (V600E) kinase (Homo sapiens, UniProt P15056, V600E)
**A:** ≤ 100 nM

###

System: A375 cells
Experiment: A375 cell proliferation assay (1), resazurin, 96-well
Assay type: cell-based
Settings: Homo sapiens, A-375, inhibition of cell proliferation
pIC50: −log10 of the molar value.
Hi there, I'd appreciate the recorded pIC50 for every entry that follows.

**Q:** What measured pIC50 goes with `COC(=O)Nc1cc(-c2cnnc(-c3cc(NC(=O)NCCC(C)(C)OC)c(F)cc3C)c2)ccn1` ?
**A:** 5.00 to 6.00

**Q:** Could you share which pIC50 value was measured for `Cc1cc(F)c(NC(=O)NCCC(C)(C)F)cc1-c1cc(OCCO)nc(-c2ccnc3[nH]ncc23)c1` ?
**A:** 6.00 to 6.30

**Q:** # lookup: pIC50 of `COC(=O)Nc1cc(-c2nccc(-c3cc(NC(=O)NCCC(C)(C)OC)c(F)cc3C)n2)ccn1`
**A:** 5.00 to 6.00

**Q:** What pIC50 value was documented for this compound, `Cc1ccc(NC(=O)Nc2cccc(C(F)(F)F)c2)cc1-c1cc(OCCO)nc(N2CCOCC2)c1` ?
**A:** 6.00 to 6.30

**Q:** I have this compound here, `CC(=O)Nc1cc(-c2cc(-c3cc(NC(=O)NCCC4(C)CC4)c(F)cc3C)cc(OCCO)n2)ccn1` , and I need its recorded pIC50.
**A:** ≥ 7.00

**Q:** Item under review: `Cc1cc(F)c(NC(=O)Nc2cnn(C(C)(C)C)c2)cc1-c1cc(OCCN(C)C)nc(N2CCOCC2)c1` . Reported pIC50?
**A:** 5.00 to 6.00

**Q:** Any idea what its pIC50 is? The compound is `Cc1ncc(NC(=O)NCCN2CCC2)cc1-c1cc(OCCO)nc(-c2ccnc(NC(=O)C3CC3)c2)c1`
**A:** 5.00 to 6.00

###

Biological target: B-Raf kinase (Homo sapiens, UniProt P15056)
Construct: GST (N); purchased Sigma
Experiment: Biochemical assay for B-Raf.1 (coupled pyruvate kinase/lactate dehydrogenase)
Details: read-out: BRAF.1 IC50
measured attribute: IC50

**Q:** Which measured IC50 value corresponds to `CNc1cc(-c2cc(-c3cc(NC(=O)NCCC4(C)CC4)c(F)cc3C)cc(OCCO)n2)ccn1` ?
**A:** ≤ 100 nM

**Q:** For the molecule shown here, `Cc1ncc(NC(=O)NCCC2(C)CC2)cc1-c1ccnc(-c2ccnc(NC(=O)C3(C#N)CC3)c2)c1` , give the reported IC50.
**A:** ≤ 100 nM

**Q:** Looking for the measured IC50 of `CC(=O)Nc1cc(-c2cc(-c3cc(NC(=O)NCCC4(C(F)(F)F)CC4)c(F)cc3C)cc(C3CC3)n2)ccn1` , can you help?
**A:** ≤ 100 nM

**Q:** Please give the measured IC50 for this molecule: `COC(=O)Nc1cc(-c2cc(-c3cc(NC(=O)NCCN4CCC4)c(F)cc3C)cc(OCCO)n2)ccn1`
**A:** > 1000 nM

**Q:** Query (molecule): `Cc1ccc(NC(=O)Nc2cnn(C(C)(C)C)c2)cc1-c1cc(OCCO)nc(N2CCOCC2)c1` ; field requested: IC50
**A:** 100 to 500 nM

**Q:** Could you tell me which IC50 is on file for `Cc1ncc(NC(=O)NCCC(C)(C)F)cc1-c1ccnc(-c2ccnc(NC(=O)C3CC3)c2)c1` ?
**A:** ≤ 100 nM

**Q:** Which measured IC50 value corresponds to `Cc1ccc(NC(=O)N2CC[C@@H](C(F)(F)F)C2)cc1-c1cncc(-c2cc(NC(=O)C3CC3)ncn2)c1` ?
**A:** ≤ 100 nM

**Q:** Would you mind telling me what IC50 value was observed for `Cc1cc(F)c(NC(=O)NCCC(C)(C)F)cc1-c1ccnc(-c2ccnc(NC(=O)C3CC3)c2)n1` ?
**A:** ≤ 100 nM

**Q:** Which IC50 is reported for this molecule? `Cc1ncc(NC(=O)N2CCOCC2)cc1-c1cccc(-c2cc(NC(=O)C3CC3)ncn2)c1`
**A:** > 1000 nM

**Q:** Which IC50 value belongs to `COC(=O)Nc1cc(-c2cc(-c3cc(NC(=O)NC[C@H]4CCO4)c(F)cc3C)cc(OCCO)n2)ccn1` ?
**A:** 500 to 1000 nM

**Q:** Consider the molecule shown here: `COC[C@H]1CCN(C(=O)Nc2cnc(C)c(-c3ccnc(-c4ccnc(NC(=O)OC)c4)c3)c2)C1` What is its recorded IC50?
**A:** > 1000 nM

**Q:** Item `COC(C)(C)CCNC(=O)Nc1ccc(C)c(-c2cc(-c3cnn(C4CCNCC4)c3)nc(N3CCOCC3)c2)c1` has what recorded IC50?
**A:** 100 to 500 nM

**Q:** GET /values?readout=IC50&item= COC(=O)Nc1cc(-c2cnnc(-c3cc(NC(=O)N4CCC(C(C)(C)O)C4)ccc3C)c2)ccn1 (stereo not drawn)
**A:** 500 to 1000 nM

**Q:** Form field: reported IC50 of `CNC(=O)c1cc(-c2cccc(-c3cc(NC(=O)NCCC(C)(C)OC)c(F)cc3C)c2)ccn1`
**A:** 100 to 500 nM

**Q:** Which IC50 value is on record for `Cc1cc(F)c(NC(=O)NCCC(C)C)cc1-c1cc(OCCO)nc(-c2ccnc(NC(=O)C3CC3)c2)c1` ?
**A:** ≤ 100 nM
